Values from PubChem BioAssay (NCI)

system: LOX IMVI melanoma; test: NCI tumour cell line growth inhibition, 48 h; in the data active = GI50 below about 0.43 µM; inactive = the rest
Outcomes: active, inactive

- MOLECULE: "Cc1cc(Nc2ncc(Cl)c(Nc3ccccc3S(=O)(=O)C(C)C)n2)c(OC(C)C)cc1C1CCNCC1"
  STUDY TARGET: "LOX IMVI melanoma"
  ASSIGNED CATEGORY: "inactive"
- MOLECULE: "O=C(/C=C/C12c3ccccc3C(c3ccccc31)C1C(=O)NC(=O)C12)c1ccco1 (centres undefined)"
  STUDY TARGET: "LOX IMVI melanoma"
  ASSIGNED CATEGORY: "inactive"
- MOLECULE: "CNC(=O)c1ccc(Nc2nc(OC3CCCC3)c3c(-c4ccc5nc(C)oc5c4)c[nH]c3n2)c(OC)c1"
  STUDY TARGET: "LOX IMVI melanoma"
  ASSIGNED CATEGORY: "active"
- MOLECULE: "CC(=O)[CH-]C(C)=O.CC(=O)[CH-]C(C)=O.CC(=O)[CH-]C(C)=O.[Cl-].[Hf+4]"
  STUDY TARGET: "LOX IMVI melanoma"
  ASSIGNED CATEGORY: "inactive"
- MOLECULE: "C[C@]12CC[C@H]3[C@@H](CC=C4C[C@@H](O)CC[C@@]43C)[C@@H]1C/C(=C\\c1cccc(OCCCn3ccnc3)c1)[C@@H]2O"
  STUDY TARGET: "LOX IMVI melanoma"
  ASSIGNED CATEGORY: "inactive"
- MOLECULE: "CCOC(=O)c1ccc2[nH]c(Cc3[nH]c4ccc(C(=O)OCC)cc4c3C)c(C)c2c1"
  STUDY TARGET: "LOX IMVI melanoma"
  ASSIGNED CATEGORY: "active"
- MOLECULE: "Cc1cc(S(=O)(=O)/N=C(\\N)n2nc(C)c(C)c2C)c(SCc2ccccc2)cc1Cl"
  STUDY TARGET: "LOX IMVI melanoma"
  ASSIGNED CATEGORY: "inactive"
- MOLECULE: "O=C1CN2CCC1C/C2=C\\c1ccnc2c(Cl)cccc12 (centres undefined)"
  STUDY TARGET: "LOX IMVI melanoma"
  ASSIGNED CATEGORY: "inactive"
- MOLECULE: "CCSc1nc(=S)[nH]c2[nH]ncc12"
  STUDY TARGET: "LOX IMVI melanoma"
  ASSIGNED CATEGORY: "inactive"

###

tested on: KM20L2 colon; test: NCI tumour cell line growth inhibition, 48 h
As shown below, each of these compounds has a reported TGI value.

- COMPOUND: "CC[N+](CC)(CC)Cc1cn(S(=O)(=O)c2ccccc2)c2ccccc12"
  INEQUALITY SYMBOL: ">"
  TGI (µM): 100
- COMPOUND: "N#CC(c1ccc(Cl)cc1)c1cccc(Cl)n1 (stereo not given)"
  INEQUALITY SYMBOL: ">"
  TGI (µM): 100
- COMPOUND: "O=C1C(Br)=C(c2ccccc2)C(c2ccccc2)=C1c1ccccc1"
  INEQUALITY SYMBOL: "="
  TGI (µM): 13.1
- COMPOUND: "CCCCC1(OC(=O)CCC(=O)O)CCC2(CCC(C)C(C/C=C(C)/C=C/C(O)C(C)/C=C/C(=O)O)O2)OC1CC/C(C)=C/C(=O)O (stereo not given)"
  INEQUALITY SYMBOL: "="
  TGI (µM): 46.8
- COMPOUND: "CO/C=C/c1cc2c(cc1C(OC)OC)OCO2"
  INEQUALITY SYMBOL: ">"
  TGI (µM): 100
- COMPOUND: "COc1ccc2c(c1)CC1NC2Cc2ccccc21 (stereo not given)"
  INEQUALITY SYMBOL: ">"
  TGI (µM): 100
- COMPOUND: "O=C(/C=C\\c1cccc2ccccc12)c1ccc(Br)cc1"
  INEQUALITY SYMBOL: "="
  TGI (µM): 32.2
- COMPOUND: "CCC[CH2][Sn]([CH2]CCC)([O]C(=O)c1cccc(F)c1F)[O][Sn]([CH2]CCC)([CH2]CCC)[O]C(=O)c1cccc(F)c1F"
  INEQUALITY SYMBOL: "="
  TGI (µM): 2.1
- COMPOUND: "O=C1CCC(NC(=O)Cc2ccc(O)cc2)C(=O)N1 (stereo not given)"
  INEQUALITY SYMBOL: ">"
  TGI (µM): 2500
- COMPOUND: "CC1=Cc2cc3[n-]c(cc4nc(cc5[n-]c(cc1n2)c(C)c5CCC(=O)O)C(CCC(=O)O)=C4C)cc3C.[Cu+2]"
  INEQUALITY SYMBOL: ">"
  TGI (µM): 100

###

tested on: OVCAR-3 ovarian; assay: NCI tumour cell line growth inhibition, 48 h; in the data active = GI50 below about 0.43 µM; inactive = the rest
Classes used: active, inactive

- COMPOUND: "CO[C@H]1C[C@@H]2CC[C@@H](C)[C@@](O)(O2)C(=O)C(=O)N2CCCC[C@H]2C(=O)O[C@H]([C@H](C)C[C@@H]2CC[C@@H](OC(=O)C(C)(CO)CO)[C@H](OC)C2)CC(=O)[C@H](C)/C=C(\\C)[C@@H](O)[C@@H](OC)C(=O)[C@H](C)C[C@H](C)/C=C/C=C/C=C/1C"
  ASSIGNED CATEGORY: "inactive"
- COMPOUND: "CCOC(=O)c1ccc2[nH]c(Cc3[nH]c4ccc(C(=O)OCC)cc4c3C)c(C)c2c1"
  ASSIGNED CATEGORY: "inactive"
- COMPOUND: "C=C1C(=O)O[C@H]2[C@H]1CC/C(COC(=O)N[C@@H](Cc1c[nH]c3ccccc13)C(=O)OC)=C\\CC[C@@]1(C)O[C@@H]21"
  ASSIGNED CATEGORY: "inactive"
- COMPOUND: "O=[N+]([O-])c1ccccc1/C=C/C=C1c2ccccc2-c2ccccc21"
  ASSIGNED CATEGORY: "inactive"
- COMPOUND: "C[C@@H](Oc1cc(-c2cnn(C3CC4(CCNCC4)C3)c2)cnc1N)c1c(F)ccc(Cl)c1Cl"
  ASSIGNED CATEGORY: "inactive"
- COMPOUND: "CCOC(=O)c1ccc(C(O)CC(=O)OC(C)(C)C)[nH]1 (configuration not stated)"
  ASSIGNED CATEGORY: "inactive"
- COMPOUND: "C/C(=C\\c1ccn(-c2ccc(N)cc2C(F)(F)F)n1)[C@@H]1C[C@@H]2O[C@]2(C)CCC[C@H](C)[C@H](O)[C@@H](C)C(=O)C(C)(C)[C@@H](O)CC(=O)O1"
  ASSIGNED CATEGORY: "active"

###

test system: T-47D breast; assay: NCI tumour cell line growth inhibition, 48 h
Recorded TGI by entry
MEASURED METRIC: TGI

- COMPOUND: "O=[N+]([O-])c1ccccc1/C=C/C=C1c2ccccc2-c2ccccc21"
  RESULT: "> 100 µM"
- COMPOUND: "C/C(=C\\c1ccn(-c2ccc(N)cc2C(F)(F)F)n1)[C@@H]1C[C@@H]2O[C@]2(C)CCC[C@H](C)[C@H](O)[C@@H](C)C(=O)C(C)(C)[C@@H](O)CC(=O)O1"
  RESULT: "> 11.1 µM"
- COMPOUND: "CCOC(=O)Cc1nc2nn(Cc3ccccc3)cc2c(=O)[nH]1"
  RESULT: "> 100 µM"
- COMPOUND: "CCOC(=O)C1C(C(C)C)C2(C#N)C(=N)OC1(C)C2(C#N)C#N (stereo not drawn)"
  RESULT: "> 100 µM"
- COMPOUND: "O=C1NC(=O)[C@H]2C3C=CC([C@@H]12)[C@@H]1C(=O)NC(=O)[C@H]31"
  RESULT: "> 100 µM"
- COMPOUND: "C#CCOC(=O)C(N)CS (stereo not drawn)"
  RESULT: "> 100 µM"
- COMPOUND: "O=C(n1[nH]c(=O)n(-c2ccc([N+](=O)[O-])cc2)c1=O)C(Cl)(Cl)Cl"
  RESULT: "> 75 µM"
- COMPOUND: "CN1CCN(CCCOc2ccc3ncnc(Nc4ccc(Oc5cccc(C(F)(F)F)c5)c(Cl)c4)c3c2)CC1"
  RESULT: "4.02 µM"
- COMPOUND: "COc1cc(-c2ccc(-[n+]3nc(-c4ccc([N+](=O)[O-])cc4)nn3-c3ccc([N+](=O)[O-])cc3)c(OC)c2)ccc1-[n+]1nc(-c2ccc([N+](=O)[O-])cc2)nn1-c1ccc([N+](=O)[O-])cc1"
  RESULT: "5.75 µM"
- COMPOUND: "O=c1c2c([nH]c3nccn13)CCCC2"
  RESULT: "> 10 µM"
- COMPOUND: "CC(=O)C1(c2ccccc2)CCCN(C)CC1 (stereo not drawn)"
  RESULT: "> 100 µM"
- COMPOUND: "Cc1nn(-c2ccccc2)c2nc3c(c(C)nn3-c3ccccc3)c(-c3ccccc3Br)c12"
  RESULT: "> 100 µM"
- COMPOUND: "COc1cc(C(=O)O)ccc1NC(=O)[C@@H]1N[C@@H](CC(C)(C)C)[C@](C#N)(c2ccc(Cl)cc2F)[C@H]1c1cccc(Cl)c1F"
  RESULT: "43.7 µM"
- COMPOUND: "N#C/C(=C\\c1ccc(Cl)cc1)n1nnc2cc(F)c(F)cc21"
  RESULT: "4.72 µM"
- COMPOUND: "CCN(CC)CCCC(C)N/C(c1cccc(OC)c1)=c1\\c(=O)[nH]n(-c2c3ccccc3nc3ccccc23)c(=O)\\c1=C(/NC(C)CCCN(CC)CC)c1cccc(OC)c1 (stereo not drawn)"
  RESULT: "5.97 µM"
- COMPOUND: "O=S(=O)(NCCNc1cc(-c2cn(-c3ccccc3)nc2-c2cccc(O)c2)ccn1)c1ccc(F)cc1"
  RESULT: "6.86 µM"
- COMPOUND: "O=C(Nc1cccc(-c2nc3ccccc3[nH]2)c1)c1cccc(NC(=O)c2ccco2)c1"
  RESULT: "3.79 µM"
- COMPOUND: "OC1OC(c2ccc[nH]2)C(F)(F)C(F)(F)C1(F)F (stereo not drawn)"
  RESULT: "> 100 µM"
- COMPOUND: "Cc1cc(S(=O)(=O)/N=C(\\N)n2nc(C)c(C)c2C)c(SCc2ccccc2)cc1Cl"
  RESULT: "> 100 µM"
- COMPOUND: "O=C(/C=C/c1ccc2c(c1)OCO2)c1ccccc1"
  RESULT: "39.5 µM"
- COMPOUND: "Cc1c(N(C(=O)c2cc(-c3cc(Cl)ccc3C(=O)N3Cc4ccccc4C[C@H]3CN3CCOCC3)n(C)c2C)c2ccc(O)cc2)cc(C#N)n1C"
  RESULT: "> 100 µM"
- COMPOUND: "O=C1C=CC(=O)N1c1ccc2c(c1)Cc1cc(NC(=O)C(F)(F)F)ccc1-2"
  RESULT: "53.2 µM"
- COMPOUND: "CN1CCN(Cc2ccc(NC(=O)c3[nH]ncc3Nc3ccnc4ccsc34)cc2)CC1"
  RESULT: "50.6 µM"
- COMPOUND: "COc1ccc(/C(Cl)=C(\\C=O)c2cc(OC)c(OC)c(OC)c2)cc1OC"
  RESULT: "> 100 µM"
- COMPOUND: "O=C(/C=C/c1c(O)c2ccccc2[nH]c1=O)CC(=O)C(=O)Nc1cccc(O)c1"
  RESULT: "> 100 µM"
- COMPOUND: "O=C1CC(n2cccc2)c2cc(Br)sc21 (stereo not drawn)"
  RESULT: "> 100 µM"
- COMPOUND: "CCSc1nc(=S)[nH]c2[nH]ncc12"
  RESULT: "> 100 µM"
- COMPOUND: "Nc1c(C(=O)Nc2cccc3ccccc23)sc2nc3c(cc12)CCCCC3"
  RESULT: "> 50 µM"
- COMPOUND: "CC(=O)CCC(=O)CC(O)(C(F)(F)F)C(F)(F)F"
  RESULT: "40 µM"
- COMPOUND: "C=C1C(=O)O[C@H]2[C@H]1CC/C(COC(=O)N[C@@H](Cc1c[nH]c3ccccc13)C(=O)OC)=C\\CC[C@@]1(C)O[C@@H]21"
  RESULT: "4.39 µM"
- COMPOUND: "COc1c(C(CC(C)C)OC(C)=O)ccc2c1C(=O)OCc1cc(C)cc(O)c1O2 (stereo not drawn)"
  RESULT: "23.6 µM"
- COMPOUND: "Cc1cc2c(cc1Cl)SC(NNC(=O)c1ccncc1)=NS2(=O)=O"
  RESULT: "> 10 µM"
- COMPOUND: "COC(=O)C(Cc1ccccc1)C(=O)NC(CNC(=O)OCc1ccccc1)C(=O)OCc1ccccc1 (stereo not drawn)"
  RESULT: "> 100 µM"
- COMPOUND: "CC(=O)NC(Cc1c[nH]c2ccccc12)C(=O)O (stereo not drawn)"
  RESULT: "> 100 µM"
- COMPOUND: "O=c1c2cc([N+](=O)[O-])cnc2sn1-c1ccc(Oc2ccccc2)cc1"
  RESULT: "56.6 µM"
- COMPOUND: "O=C1OC2(c3ccccc31)c1cc(I)c(O)c(I)c1Oc1c2cc(I)c(O)c1I"
  RESULT: "> 100 µM"
- COMPOUND: "O=c1oc2ccccc2c(O)c1C(c1ccc2ccccc2c1)c1c(O)c2ccccc2oc1=O"
  RESULT: "> 100 µM"
- COMPOUND: "CC/C(=C/OC)P1(=O)OC(C)(C)CN1C(C)(C)C (stereo not drawn)"
  RESULT: "> 100 µM"
